- Test system: Staphylococcus aureus
- Experiment Summary: Antibacterial activity against Staphylococcus aureus ATCC 29213 by CLSI method
- Format: functional
Parameter Measured: MIC

compound=CNc1cc(F)cc2cc(C(=O)Nc3ccc(C(=O)O)c(O)c3)c(=O)[nH]c12 reported_value="> 32 µg/mL"
compound=CNc1cc(F)cc2c(NCC3CNC3)c(C(=O)Nc3ccc(C(=O)O)cc3)c(=O)[nH]c12.O=CO reported_value="> 16 µg/mL"
compound=CNc1cc(F)cc2c(NCC3CCNCC3)c(C(=O)Nc3ccc(C(=O)O)cc3)c(=O)[nH]c12.O=CO reported_value="> 32 µg/mL"
compound=CNc1cc(F)cc2cc(C(=O)Nc3ccc(C(=O)O)cc3CN(CCN)C3CCCCC3)c(=O)[nH]c12.O=C(O)C(F)(F)F reported_value="> 64 µg/mL"
compound=CNc1cc(F)cc2c(NCCCN)c(C(=O)Nc3ccc(C(=O)O)cc3)c(=O)[nH]c12.O=CO reported_value="> 8 µg/mL"

====

- Test system: Staphylococcus aureus
- Experiment Summary: Antibacterial activity against Staphylococcus aureus ATCC 29213 by CLSI method
- Type: functional
MIC: recorded values
Parameter Measured: MIC

compound=CNc1cc(F)cc2cc(C(=O)Nc3ccc(C(=O)O)cc3CN(C)C3CC3)c(=O)[nH]c12 parameter_measured=MIC reported_value="> 8 µg/mL"
compound=CNc1cc(F)cc2cc(C(=O)Nc3ccc(C(N)=O)cc3CN(C)C3CCCCC3)c(=O)[nH]c12 parameter_measured=MIC reported_value="> 32 µg/mL"
compound=CNc1cc(F)cc2cc(C(=O)Nc3ccc(C(=O)O)cc3CNCCO)c(=O)[nH]c12.Cl parameter_measured=MIC reported_value="> 64 µg/mL"
compound=CNc1cc(F)cc2c(NCC3(N)CCC3)c(C(=O)Nc3ccc(C(=O)O)cc3)c(=O)[nH]c12.O=CO parameter_measured=MIC reported_value="> 32 µg/mL"

====

MIC values for the molecules below.
- System: Staphylococcus aureus
- Experiment Summary: Antibacterial activity against Staphylococcus aureus ATCC 29213 by CLSI method
- Type: functional
Parameter Measured: MIC

compound=CNc1cc(F)cc2cc(C(=O)Nc3cnc(C(=O)O)nc3)c(=O)[nH]c12 target_system="Staphylococcus aureus" reported_value="> 16 µg/mL"
compound=CNCCNc1c(C(=O)Nc2ccc(C(=O)O)cc2)c(=O)[nH]c2c(NC)cc(F)cc12.O=CO target_system="Staphylococcus aureus" reported_value="> 16 µg/mL"
compound=CNc1cc(F)cc2c(NCCN)c(C(=O)Nc3ccc(C(=O)O)cc3)c(=O)[nH]c12.O=CO target_system="Staphylococcus aureus" reported_value="> 16 µg/mL"
compound=CNc1cc(F)cc2c(N[C@H]3C[C@@H](N)C3)c(C(=O)Nc3ccc(C(=O)O)cc3)c(=O)[nH]c12.O=CO target_system="Staphylococcus aureus" reported_value="> 32 µg/mL"
compound=CNc1cc(F)cc2cc(C(=O)Nc3ccc(C(=O)NCCN4CCOCC4)cc3)c(=O)[nH]c12 target_system="Staphylococcus aureus" reported_value="> 16 µg/mL"

====

Reported IC50 by item:
- Target System: DNA gyrase (Escherichia coli, UniProt P0AES4+P0AES6)
- Experiment Summary: Inhibition of Escherichia coli DNA gyrase by measuring supercoiling activity incubated for 60 mins by fluorescence based assay
Parameter Measured: IC50 (nM)

compound=CNc1cc(F)cc2c(O)c(C(=O)Nc3ccc(C(=O)O)cc3)c(=O)[nH]c12 parameter_measured=IC50 reported_value=1.1
compound=CNc1cc(F)cc2c(NCC3CCNCC3)c(C(=O)Nc3ccc(C(=O)O)cc3)c(=O)[nH]c12.O=CO parameter_measured=IC50 reported_value=1.31
compound=CNc1cc(F)cc2c(NCCN)c(C(=O)Nc3ccc(C(=O)O)cc3)c(=O)[nH]c12.O=CO parameter_measured=IC50 reported_value=0.94
